- System: YAP-dependent transcription in SF268-MCAT_Luc_dox-i-shYAPLevy (Clone 13) cells
- experimentalDetails: YAP reporter gene activity assay (MCAT-Luc), SF268
- Type: cell-based
- conditionDetails: Homo sapiens, SF-268; SF268 MCAT_Luc, 24 hrs
pIC50: −log10 of the molar value.
quantityMeasured: pIC50

Known pIC50 results, listed for orientation:
compound: COc1ccc(C(N)=O)c(-c2c(Cl)c(F)cc3c2[C@H](C)[C@@](CN[C@H]2CC[C@H](C(=O)N4CCC(CC5CCN(C(=O)Cn6cccc(CN7CCC(=O)NC7=O)c6=O)CC5)CC4)CC2)(c2ccccc2)O3)c1F (atropisomer, axis not shown) [Example 16]
pIC50: 8.92
--
compound: COc1ccc(C(=O)N2CCC(OC3CCN(C(=O)[C@H]4CC[C@H](NC[C@]5(c6ccccc6)Oc6cc(F)c(Cl)c(-c7c(C(N)=O)ccc(OC)c7F)c6[C@@H]5C)CC4)CC3)CC2)cc1N1CCC(=O)NC1=O (atropisomer, axis not shown) [Example 2]
pIC50: 9.05
--
compound: COc1ccc(C(N)=O)c(-c2c(Cl)c(F)cc3c2[C@H](C)[C@@](CN[C@H]2CC[C@H](C(=O)N4CCC(OC5CCN(C(=O)CCC(=O)N[C@H](C(=O)N6C[C@H](O)C[C@H]6C(=O)N[C@@H](C)c6ccc(-c7scnc7C)cc6)C(C)(C)C)CC5)CC4)CC2)(c2ccccc2)O3)c1F (atropisomer, axis not shown) [Example 41]
pIC50: 7.96

A = COc1ccc(C(N)=O)c(-c2c(Cl)c(F)cc3c2[C@H](C)[C@@](CN[C@H]2CC[C@H](C(=O)N4CCC(CC5CCN(C(=O)COc6ccc(F)c(N7CCC(=O)NC7=O)c6)CC5)CC4)CC2)(c2ccccc2)O3)c1F (atropisomer, axis not shown) [Example 29]
B = COc1ccc(C(=O)N2CCN(CC3CCN(CCNC(=O)[C@H]4CC[C@H](NC[C@]5(c6ccccc6)Oc6cc(F)c(Cl)c(-c7c(C(N)=O)ccc(OC)c7F)c6[C@@H]5C)CC4)CC3)CC2)cc1N1CCC(=O)NC1=O (atropisomer, axis not shown) [Example 3]
C = COc1ccc(C(=O)N2CCC(CCC3CCN(C(=O)[C@H]4CC[C@H](NC[C@]5(c6ccccc6)Oc6cc(F)c(Cl)c(-c7c(C(N)=O)ccc(OC)c7F)c6[C@@H]5C)CC4)CC3)CC2)cc1N1CCC(=O)NC1=O (atropisomer, axis not shown) [Example 27]
D = CNC(=O)c1cnc(OCCOCCn2cc(-c3ccc4c(c3)CN(C3CCC(=O)NC3=O)C4=O)nn2)c(F)c1-c1c(Cl)c(F)cc2c1C[C@](c1ccccc1)([C@@H]1CCCN1)O2 (some centres unmarked) [Example 32]
E = COc1ccc(C(=O)NCCCCCn2cc(-c3ccc4c(c3)CN(C3CCC(=O)NC3=O)C4=O)nn2)c(-c2c(Cl)c(F)cc3c2C[C@@](CN)(c2ccccc2)O3)c1F (some centres unmarked) [Example 37]
Put the items in sequence by pIC50, from largest down. Please express your ranking as an ordered list of the labels.
C, A, B, E, D
(C: 9.77, A: 9.19, B: 8.80, E: 6.38, D: 5.56)

Source: patent US20240382600A1
